Details: Crystal; visual observation
parameter: Normal melting temperature (°C)
Hi! Could you send only the number? It should be in °C, unit omitted.

The cases that follow already have their Normal melting temperature on record.
C=CC[n+]1cccc(C)c1.[Cl-] [1-allyl-3-methylpyridinium chloride] | 108.00
CCCCCCCCC[n+]1cccc(C)c1.[Cl-] [1-nonyl-3-methylpyridinium chloride] | 64.00
CCCCCCCC[n+]1cccc(C)c1.[Cl-] [1-octyl-3-methylpyridinium chloride] | 74.00
CCCC[n+]1cccc(C)c1.[Cl-] [1-butyl-3-methylpyridinium chloride] | 97.00
CCCCCCCCCC[n+]1cccc(C)c1.[Cl-] [1-decyl-3-methylpyridinium chloride] | 64.00

Challenge: Request the reported Normal melting temperature associated with CC[n+]1cccc(C)c1.[Br-] [1-ethyl-3-methylpyridinium bromide]
Response given: 163.00

Challenge: Also check CC[n+]1cccc(C)c1.[Cl-] [1-ethyl-3-methylpyridinium chloride]
Response given: 130.00

Challenge: Also check CCC[n+]1cccc(C)c1.[Cl-] [1-propyl-3-methylpyridinium chloride]
Response given: 92.00

---

Conditions: Crystal; visual observation
Some molecules, each annotated with its measured Normal melting temperature.
Hi! Could you send only the number? It should be in °C, unit omitted.

CCCCCC[n+]1cccc(C)c1.[Cl-] [1-hexyl-3-methylpyridinium chloride] | 77.00

Challenge: Request the reported Normal melting temperature associated with CCCCC[n+]1cccc(C)c1.[Cl-] [1-pentyl-3-methylpyridinium chloride]
Response given: 92.00

Challenge: Also check CCCCCCC[n+]1cccc(C)c1.[Cl-] [1-heptyl-3-methylpyridinium chloride]
Response given: 72.00

---

Conditions: Glass; DTA
Some compounds, each annotated with its measured Glass transition temperature.
Hi! Could you send only the number? It should be in °C, unit omitted.

CCC[n+]1cccc(C)c1.[Cl-] [1-propyl-3-methylpyridinium chloride] | 18.50

Challenge: Request the reported Glass transition temperature associated with CCCCCCC[n+]1cccc(C)c1.[Cl-] [1-heptyl-3-methylpyridinium chloride]
Response given: 16.50

Challenge: Also check CC[n+]1cccc(C)c1.[Cl-] [1-ethyl-3-methylpyridinium chloride]
Response given: 29.00

Challenge: Also check CCCC[n+]1cccc(C)c1.[Cl-] [1-butyl-3-methylpyridinium chloride]
Response given: 35.00

Challenge: Also check C=CC[n+]1cccc(C)c1.[Cl-] [1-allyl-3-methylpyridinium chloride]
Response given: 27.50

Challenge: Also check CCCCC[n+]1cccc(C)c1.[Cl-] [1-pentyl-3-methylpyridinium chloride]
Response given: 21.50

---

Some compounds, each annotated with its measured Normal melting temperature.
Conditions: Crystal; DTA
± gives the expanded uncertainty stated by the source.
Answer format: value, then unit.

CCCC[n+]1cccc(C)c1.[Cl-] [1-butyl-3-methylpyridinium chloride] | 93.00 ± 5 °C
CCCCCCCCCC[n+]1cccc(C)c1.[Cl-] [1-decyl-3-methylpyridinium chloride] | 55.00 ± 5 °C
CC[n+]1cccc(C)c1.[Br-] [1-ethyl-3-methylpyridinium bromide] | 146.00 ± 5 °C
CCCCCC[n+]1cccc(C)c1.[Cl-] [1-hexyl-3-methylpyridinium chloride] | 62.00 ± 5 °C

Lab note: next compound to report on.
Challenge: Request the reported Normal melting temperature associated with CCCCCCCC[n+]1cccc(C)c1.[Cl-] [1-octyl-3-methylpyridinium chloride]
Response given: 69.00 ± 5 °C
